tested on: HCV NS5B C316Y mutant (Hepatitis C virus genotype 1b, UniProt Q9WMX2, C2735Y)
Construct: HCV NS5B C316Y or S365A mutant as indicated; expressed in transfected cells
method summary: Activity against HCV NS5B C316Y mutant
Type: cell-based
settings: class symbol; C316Y mutant
measurement kind: Inhibition of HCV N55B C316Y mutant

Name the recorded Inhibition of HCV N55B C316Y mutant of the compound listed here: CC1c2cc3c(-c4ncc[nH]4)c(-c4ccc(F)cc4)oc3cc2N(S(C)(=O)=O)CCN1C (stereo not shown)
†††

Consider the compound CNC(=O)c1c(-c2ccc(F)cc2)oc2cc3c(cc12)C(C)N(CCS(C)(=O)=O)CCN3S(C)(=O)=O (stereo not shown) and give its recorded Inhibition of HCV N55B C316Y mutant.
†††

Query Inhibition of HCV N55B C316Y mutant for "CNC(=O)c1c(-c2ccc(Oc3ccc(F)cc3)cc2)oc2cc3c(cc12)[C@H](C)OCCN3S(C)(=O)=O"
†††

====

tested on: HCV NS5B S365A mutant (Hepatitis C virus genotype 1b, UniProt Q9WMX2, S2784A)
Construct: HCV NS5B C316Y or S365A mutant as indicated; expressed in transfected cells
method summary: Activity against HCV NS5B S365A mutant
Type: cell-based
settings: class symbol; S3865A mutant
Experimental: The biological activity against HCV 1b, 1a, or 2a is indicated as being *, **, ***, or ****, which corresponds to EC50 ranges of EC50>1000 nM, 100 nM<EC50≦1000 nM, 10 nM<EC50≦100 nM, or EC50≦10 nM, respectively. The biological activity against HCV NS5B C316Y or S365A mutant is indicated as being […], which corresponds to EC50 ranges of EC50>1000 nM, 200 nM<EC50≦1000 nM, […], respectively.
measurement kind: Inhibition of HCV NS5B S3865A mutant

Answered cases to consult:
Please look at this compound and report its Inhibition of HCV NS5B S3865A mutant: CNC(=O)c1c(-c2ccc(F)cc2)oc2cc3c(cc12)[C@H](C)O[C@H](CO)CN3S(C)(=O)=O [Compound B212]
†††

For the compound CNC(=O)c1c(-c2ccc(Oc3ccc(F)cc3)cc2)oc2cc3c(cc12)[C@H](C)O[C@H](CO)CN3S(C)(=O)=O [Compound B232] , give its measured Inhibition of HCV NS5B S3865A mutant value.
†††

Give me measured Inhibition of HCV NS5B S3865A mutant, please, for this compound: CNC(=O)c1c(-c2ccc(Oc3ccc(F)cc3)cc2)oc2cc3c(cc12)[C@H](C)n1nncc1CN3S(C)(=O)=O (single isomer, unassigned) [Compound B163]
†††

Check the records and state Inhibition of HCV NS5B S3865A mutant for CNC(=O)c1c(-c2ccc(F)cc2)oc2cc3c(cc12)C(C)N(CCS(C)(=O)=O)CCN3S(C)(=O)=O (stereo not shown) [Compound B156]
†††

Quote Inhibition of HCV NS5B S3865A mutant reported for CNC(=O)c1c(-c2ccc(F)cc2)oc2cc3c(cc12)[C@H](C)NC(=O)CN3S(C)(=O)=O (single isomer, unassigned) [Compound B208] please.
†††

Next:
Item CNC(=O)c1c(-c2ccc(F)cc2)oc2cc3c(cc12)[C@@H]1C[C@@H]1CCN3S(C)(=O)=O (single isomer, unassigned) [Compound B132] : provide Inhibition of HCV NS5B S3865A mutant
†††

Could you please provide reported Inhibition of HCV NS5B S3865A mutant for CC1CCCN(S(C)(=O)=O)c2cc3oc(-c4ccc(F)cc4)c(-c4ncc[nH]4)c3cc21 (stereo not shown) [Compound B120] ? Thanks!
†††

Indicate the recorded Inhibition of HCV NS5B S3865A mutant value for this compound: CNC(=O)c1c(-c2ccc(Oc3ccc(F)cc3)cc2)oc2cc3c(cc12)[C@H](C)O[C@H](CS(C)(=O)=O)CN3S(C)(=O)=O [Compound B207]
†††

Item CNC(=O)c1c(-c2ccc(Oc3ccc(F)cc3)cc2)oc2cc3c(cc12)[C@H](C)OCCN3S(C)(=O)=O [Compound B118] : provide Inhibition of HCV NS5B S3865A mutant
†††

====

Tested on: 1b_Huh-Luc/Neo-ET cell line (bicistronic genotype 1b replicon in Huh 7 cells)
method summary: HCV 1b replicon assay, luciferase readout
Type: cell-based, HCV genotype 1b
settings: Hepatitis C virus, Huh-7, class symbol; HCV genotype 1b replicon; read-out: Inhibition of HCV genotype 1b replicon
pEC50: −log10 of the molar value.
I'd be grateful if you could share measured pEC50 for these entries.

Return the recorded pEC50 value; entry: CNC(=O)c1c(-c2ccc(Oc3ccccc3Cl)cc2)nn2cc3c(cc12)C(C)CCCN3S(C)(=O)=O (stereo not drawn)
6.00 to 7.00

Recall and state the measured pEC50 for "CNC(=O)c1c(-c2ccc(F)cc2)oc2cc3c(cc12)[C@@H](C)O[C@@H](CS(C)(=O)=O)CN3S(C)(=O)=O" .
< 6.00

Could you please provide reported pEC50 for CCN1CCN(S(C)(=O)=O)c2cc3oc(-c4ccc(F)cc4)c(C(=O)NC)c3cc2C1C (stereo not drawn) ? Thanks!
7.00 to 8.00

Identify pEC50 associated with the molecule "CNC(=O)c1c(-c2ccc(F)cc2)oc2cc3c(cc12)[C@H](C)O[C@H](CCO)CN3S(C)(=O)=O"
7.00 to 8.00

Retrieve pEC50 measured for CNC(=O)c1c(-c2ccc(Oc3ccc(F)cc3)cc2)oc2cc3c(cc12)[C@@H](C)n1nncc1CN3S(C)(=O)=O (single isomer, unassigned) and print it.
7.00 to 8.00

Please list pEC50 recorded for the molecule CNC(=O)c1c(-c2ccc(F)cc2)oc2cc3c(cc12)C(C)OC(CS(C)(=O)=O)CN3S(C)(=O)=O (stereo not drawn)
> 8.00

Please give measured pEC50 of the following entry: "CS(=O)(=O)N1CCCCCc2cc3c(-c4ncc[nH]4)c(-c4ccc(F)cc4)nn3cc21"
7.00 to 8.00

Give the reported pEC50 for this molecule. CNC(=O)c1c(-c2ccc(F)cc2)oc2cc3c(cc12)C(C)OCC(CS(C)(=O)=O)N3S(C)(=O)=O (stereo not drawn)
7.00 to 8.00

Quickly give me recorded pEC50 for CNC(=O)c1c(-c2ccc(Oc3ccc(F)cc3)cc2)oc2cc3c(cc12)[C@@H](C)CCCN3S(C)(=O)=O (single isomer, unassigned)
6.00 to 7.00

Note pEC50 for the molecule shown: "CNC(=O)c1c(-c2ccc(F)cc2)oc2cc3[nH]ccc3cc12"
< 6.00

Dear colleague, please send me the reported pEC50 for CNC(=O)c1c(-c2ccc(F)cc2)nn2cc3c(cc12)[C@@H](C)CCCN3S(C)(=O)=O (single isomer, unassigned) when you can.
< 6.00

Fill in pEC50 for record CNC(=O)c1c(-c2ccc(F)cc2)oc2cc3c(cc12)C(C)OC(C(=O)N(C)C)CN3S(C)(=O)=O (stereo not drawn)
7.00 to 8.00

Give pEC50 for CNC(=O)c1c(-c2ccc(Oc3ccc(F)cc3)cc2)oc2cc3c(cc12)C(C)CCCN3S(C)(=O)=O (stereo not drawn)
7.00 to 8.00

Give the value of pEC50 reported for the following: C=CCN1CCN(S(C)(=O)=O)c2cc3oc(-c4ccc(F)cc4)c(C(=O)NC)c3cc2C1C (stereo not drawn)
7.00 to 8.00

Tell me pEC50 reported for CNC(=O)c1c(-c2ccc(F)cc2)oc2cc3c(cc12)[C@H](C)OC1(CC1)CN3S(C)(=O)=O (single isomer, unassigned)
7.00 to 8.00

Note pEC50 for the molecule shown: CNC(=O)c1c(-c2ccc(F)cc2)oc2cc3c(cc12)C(C)OC(CN1CCOCC1)CN3S(C)(=O)=O (stereo not drawn)
7.00 to 8.00

# return recorded pEC50 for entry "CNC(=O)c1c(-c2ccc(Oc3ccc(F)cc3)cc2)oc2cc3c(cc12)[C@H](C)O[C@@H](CO)CN3S(C)(=O)=O"
7.00 to 8.00

Give the reported value of pEC50 for this record: CNC(=O)c1c(-c2ccc(Oc3ccccc3)cc2)nn2cc3c(cc12)C(C)CCCN3S(C)(=O)=O (stereo not drawn)
6.00 to 7.00

Quick one: give measured pEC50 for CNC(=O)c1c(-c2ccc(F)cc2)oc2cc3c(cc12)C(O)C(C)(C)CCN3S(C)(=O)=O (stereo not drawn)
7.00 to 8.00

Check the records and state pEC50 for "C=C1CCCN(S(C)(=O)=O)c2cc3oc(-c4ccc(Oc5ccc(F)cc5)cc4)c(C(=O)NC)c3cc21"
6.00 to 7.00

Read off the recorded pEC50 for CNC(=O)c1c(-c2ccc(F)cc2)oc2cc3c(cc12)C(C)n1nnnc1CN3S(C)(=O)=O (stereo not drawn)
7.00 to 8.00

Answer with the recorded pEC50 for the molecule listed here: CNC(=O)c1c(-c2ccc(Oc3ccc(F)cc3)cc2)oc2cc3c(cc12)[C@H](C)N(C)C(=O)CN3S(C)(=O)=O (single isomer, unassigned)
7.00 to 8.00

Using the record for "CNC(=O)c1c(-c2ccc(F)cc2)oc2cc3c(cc12)[C@H](C)O[C@H](CO)CN3S(C)(=O)=O" , state its measured pEC50.
> 8.00

Tell us which pEC50 value is on record for CNC(=O)c1c(-c2ccc(F)cc2)oc2cc3c(cc12)C(C)N(C(=O)c1ccc(F)cc1)CCN3S(C)(=O)=O (stereo not drawn)
7.00 to 8.00

Tell me its pEC50 given "CNC(=O)c1c(-c2ccc(F)cc2)oc2cc3c(cc12)CCc1ccccc1CN3S(C)(=O)=O" as the entry.
7.00 to 8.00

For the molecule CNC(=O)c1c(-c2ccc(F)cc2)oc2cc3c(cc12)C(C)N(c1ccc(F)cc1)CCN3S(C)(=O)=O (stereo not drawn) , give its reported pEC50.
7.00 to 8.00

Write down pEC50 measured for item CNC(=O)c1c(-c2ccc(F)cc2)oc2cc3c(cc12)C(C)OC(CC#N)CN3S(C)(=O)=O (stereo not drawn)
> 8.00
